Task for the reader: assign each of the following compounds its reported pIC50.
- TARGET UNDER TEST: GST-tagged truncated LRRK2 (Homo sapiens, UniProt Q5S007)
- Construct: GST-tagged truncated LRRK2 from Invitrogen (Cat # PV4874); GST; purchased Invitrogen PV4874
- Sequence (Q5S007 970-2527 limits assumed): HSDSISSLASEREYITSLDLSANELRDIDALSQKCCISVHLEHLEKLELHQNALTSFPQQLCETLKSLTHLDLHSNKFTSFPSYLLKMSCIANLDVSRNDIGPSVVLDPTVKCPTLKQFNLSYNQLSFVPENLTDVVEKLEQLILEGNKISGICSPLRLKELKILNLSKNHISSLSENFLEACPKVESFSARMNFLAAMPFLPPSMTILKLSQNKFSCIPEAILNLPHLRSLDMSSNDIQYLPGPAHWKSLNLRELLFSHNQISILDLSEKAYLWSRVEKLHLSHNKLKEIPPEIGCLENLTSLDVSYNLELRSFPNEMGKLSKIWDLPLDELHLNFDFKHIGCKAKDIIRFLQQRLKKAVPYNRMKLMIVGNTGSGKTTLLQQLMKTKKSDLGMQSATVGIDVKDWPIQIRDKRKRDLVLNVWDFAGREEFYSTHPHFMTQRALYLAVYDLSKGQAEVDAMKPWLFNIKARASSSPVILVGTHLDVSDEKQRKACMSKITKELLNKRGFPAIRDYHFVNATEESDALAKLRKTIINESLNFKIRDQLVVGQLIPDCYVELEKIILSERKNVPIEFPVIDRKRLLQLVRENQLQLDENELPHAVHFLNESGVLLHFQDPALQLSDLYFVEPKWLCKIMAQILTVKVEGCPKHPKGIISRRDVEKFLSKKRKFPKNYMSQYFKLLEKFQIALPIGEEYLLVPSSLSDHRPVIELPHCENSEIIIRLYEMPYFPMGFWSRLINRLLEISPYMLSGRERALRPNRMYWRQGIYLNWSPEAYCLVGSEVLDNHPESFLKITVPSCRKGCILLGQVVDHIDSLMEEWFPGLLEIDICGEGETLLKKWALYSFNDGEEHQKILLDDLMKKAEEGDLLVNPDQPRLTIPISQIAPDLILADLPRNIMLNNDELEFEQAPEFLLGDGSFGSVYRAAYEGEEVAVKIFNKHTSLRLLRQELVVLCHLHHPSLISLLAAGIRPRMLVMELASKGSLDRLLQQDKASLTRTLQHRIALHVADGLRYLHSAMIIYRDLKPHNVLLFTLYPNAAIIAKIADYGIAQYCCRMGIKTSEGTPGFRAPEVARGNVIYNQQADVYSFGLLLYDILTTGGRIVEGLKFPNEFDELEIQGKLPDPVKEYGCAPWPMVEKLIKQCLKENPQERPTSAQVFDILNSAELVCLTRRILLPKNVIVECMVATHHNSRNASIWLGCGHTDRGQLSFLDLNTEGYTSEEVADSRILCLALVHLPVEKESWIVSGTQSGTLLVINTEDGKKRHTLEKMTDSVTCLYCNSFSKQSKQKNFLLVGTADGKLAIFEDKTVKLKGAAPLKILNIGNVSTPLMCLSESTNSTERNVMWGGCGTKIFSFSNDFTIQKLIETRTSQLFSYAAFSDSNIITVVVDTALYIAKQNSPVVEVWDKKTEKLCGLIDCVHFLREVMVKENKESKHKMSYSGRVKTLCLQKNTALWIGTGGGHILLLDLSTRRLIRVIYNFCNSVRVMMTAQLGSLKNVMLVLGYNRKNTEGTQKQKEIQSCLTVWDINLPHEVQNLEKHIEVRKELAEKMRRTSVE
- ASSAY NAME: LRRK2 Assay, Format 2 (Lantha Screen), WT
- Assay type: biochemical
- TEST PARAMETERS: geometric mean of 2-4 determinations unless otherwise indicated (a: >=5; b: single determination)
Where a name gives a salt, the structure may show the parent alone.
One number for each entry, as −log10 of the molar value.

{"COMPOUND": "CC1(C)CC(n2c(Cc3cc(C(F)(F)F)on3)nc3cnc4ccc(C#N)cc4c32)CCO1 (single isomer, unassigned; ent-2) [Example 177]", "pIC50": 5.91}
{"COMPOUND": "Cc1cc(Cc2nc3cnc4ccc(F)cc4c3n2[C@@H]2CCO[C@H](C)C2)no1 [Example 200]", "pIC50": 7.91}
{"COMPOUND": "N#CCc1nc2cnc3ccc(F)cc3c2n1[C@@H]1CC[C@H](F)C1 (single isomer, unassigned; ent-1) [Example 170]", "pIC50": 7.19}
{"COMPOUND": "C[C@@H]1C[C@H](n2c(Cc3cccnn3)nc3cnc4ccc(Cl)cc4c32)CCO1 [Example 142]", "pIC50": 8.15}
{"COMPOUND": "CC1(C)CC(n2c(Cc3cc(C(F)(F)F)on3)nc3cnc4ccc(C#N)cc4c32)CCO1 (single isomer, unassigned; ent-1) [Example 176]", "pIC50": 7.89}

Look up pIC50 for the entries below, preserving their order.
1. CC(F)(F)Cn1c(Cn2ccc(C3CC3)n2)nc2cnc3ccc(C#N)cc3c21 [Example 225]
2. C[C@@H]1C[C@H](n2c(C(F)(F)c3ccccn3)nc3cnc4ccc(Cl)cc4c32)CCO1 [Example 214, formate salt]
3. Cc1nn2cc(Cc3nc4cnc5ccc(C#N)cc5c4n3CC(C)(F)F)nc2s1 [Example 226]
4. Cc1nn2cc(Cc3nc4cnc5ccc(Cl)cc5c4n3[C@@H]3CCO[C@H](C)C3)nc2s1 [Example 162, formate salt]
5. C[C@@H]1C[C@H](n2c(Cn3cnnn3)nc3cnc4ccc(C#N)cc4c32)CCO1 [Example 124, formate salt]
6. CC(C)c1cn(Cc2nc3cnc4ccc(C#N)cc4c3n2[C@@H]2CCO[C@H](C)C2)nn1 [Example 126, formate salt]

1. 8.14
2. 8.12
3. 8.34
4. 8.41
5. 8.21
6. 8.08

====

- TARGET UNDER TEST: mutant G2019S LRRK2 (Homo sapiens, UniProt Q5S007, G2019S)
- Sequence (Q5S007 970-2527 G2019S limits assumed): as the sequence (Q5S007 970-2527 limits assumed) above, with G1050S counted along it
- ASSAY NAME: LRRK2 Assay, Format 1 (Lantha Screen), G2019S mutant
1 if IC50 is below 10 nM. -1 if not; exact matches included in -1.

// known answers, use as guide
{"MOLECULE": "C[C@@H]1C[C@H](n2c(Cc3ncon3)nc3cnc4ccc(Cl)cc4c32)CCO1", "TARGET UNDER TEST": "mutant G2019S LRRK2 (Homo sapiens, UniProt Q5S007, G2019S)", "ASSIGNED LABEL": 1}
{"MOLECULE": "C[C@@H]1C[C@H](n2c(Cc3ccon3)nc3cnc4ccc(F)cc4c32)CCO1", "TARGET UNDER TEST": "mutant G2019S LRRK2 (Homo sapiens, UniProt Q5S007, G2019S)", "ASSIGNED LABEL": 1}
{"MOLECULE": "C[C@H]1C[C@@H](n2c(Cc3cn4ncsc4n3)nc3cnc4ccc(Cl)cc4c32)CCO1 (single isomer, unassigned)", "TARGET UNDER TEST": "mutant G2019S LRRK2 (Homo sapiens, UniProt Q5S007, G2019S)", "ASSIGNED LABEL": -1}

Now let's try a different one.
Dear reviewer, please state whether C[C@H]1C[C@@H](n2c(Cc3ccon3)nc3cnc4cccnc4c32)CCO1 [enantiomer of Example 68] has IC50 strictly beneath 10 nM.
-1

====

- TARGET UNDER TEST: GST-tagged truncated LRRK2 (Homo sapiens)
- Construct: GST-tagged truncated LRRK2 from Invitrogen (Cat # PV4874); GST; purchased Invitrogen PV4874
- ASSAY NAME: LRRK2 Assay, Format 2 (Lantha Screen), WT
- Type: biochemical
- TEST PARAMETERS: geometric mean of 2-4 determinations unless otherwise indicated (a: >=5; b: single determination)
Counter-ions that a name gives are not always drawn.
Cut-off 20 nM on IC50: below means TRUE, at or above means FALSE.

Known results for compounds:
{"COMPOUND": "C[C@@H]1C[C@H](n2c(Cc3cnns3)nc3cnc4ccc(Cl)cc4c32)CCO1", "ASSIGNED LABEL": "FALSE"}
{"COMPOUND": "N#CCc1nc2cnc3ccc(Cl)cc3c2n1[C@@H]1CC[C@H](F)C1 (single isomer, unassigned; ent-1)", "ASSIGNED LABEL": "FALSE"}
{"COMPOUND": "CC(F)(F)Cn1c(Cc2cscn2)nc2cnc3ccc(C#N)cc3c21", "ASSIGNED LABEL": "TRUE"}
{"COMPOUND": "N#Cc1ccc2ncc3nc(Cc4cscn4)n([C@@H]4CC[C@H](F)C4)c3c2c1 (single isomer, unassigned; ent-1)", "ASSIGNED LABEL": "TRUE"}
{"COMPOUND": "C[C@@H]1C[C@H](n2c(Cc3cc4n(n3)CCC4)nc3cnc4ccc(Cl)cc4c32)CCO1 [Example 166, trifluoroacetate salt]", "ASSIGNED LABEL": "TRUE"}

Say whether its IC50 is strictly beneath 20 nM. Entry: Cc1cc(Cc2nc3cnc4ccc(C#N)cc4c3n2[C@@H]2CCC[C@@H]2F)no1 (single isomer, unassigned; ent-1) [Example 146]
TRUE

Consider the compound `CO[C@H]1C[C@H](n2c(Cn3cc(C)nn3)nc3cnc4ccc(Cl)cc4c32)C1` . Is its IC50 strictly less than 20 nM?
FALSE

====

- TARGET UNDER TEST: mutant G2019S LRRK2 (Homo sapiens, UniProt Q5S007, G2019S)
- ASSAY NAME: LRRK2 Assay, Format 1 (Lantha Screen), G2019S mutant
Structures can show the parent of a compound that is named as a salt.
EXPERIMENTAL ENDPOINT: IC50 (nM)
One number for each entry, in nM.

{"MOLECULE": "Cc1nn2cc(Cc3nc4cnc5ccccc5c4n3C3CCOCC3)nc2s1", "EXPERIMENTAL ENDPOINT": "IC50", "REPORTED": 41.6}
{"MOLECULE": "C[C@H]1C[C@@H](n2c(Cc3cscn3)nc3cnc4ccc(C#N)cc4c32)CCO1 [enantiomer of Example 57]", "EXPERIMENTAL ENDPOINT": "IC50", "REPORTED": 196}
{"MOLECULE": "FC1(F)CCC(n2c(Cc3ccon3)nc3cnc4ccccc4c32)CC1", "EXPERIMENTAL ENDPOINT": "IC50", "REPORTED": 118}

The value of IC50 measured for the molecule CC1(C)CC(n2c(Cc3cscn3)nc3cnc4ccc(F)cc4c32)CCO1 (stereo not shown) [Example 80, trifluoroacetate salt] turned out to be 39.5

====

- TARGET UNDER TEST: GST-tagged truncated LRRK2 (Homo sapiens)
- Construct: GST-tagged truncated LRRK2 from Invitrogen (Cat # PV4874); GST; purchased Invitrogen PV4874
- ASSAY NAME: LRRK2 Assay, Format 2 (Lantha Screen), WT
- Assay type: biochemical
- TEST PARAMETERS: geometric mean of 2-4 determinations unless otherwise indicated (a: >=5; b: single determination)
Structures can show the parent of a compound that is named as a salt.
Record form. Attribute: IC50. Fill in for each entry.
One number for each entry, in nM.

In the examples that follow, each entry is paired with its recorded IC50.
{"MOLECULE": "Cc1nn2cc(Cc3nc4cnc5ccc(C#N)cc5c4n3[C@@H]3CC[C@H](F)C3)nc2s1 (single isomer, unassigned; ent-1) [Example 168]", "IC50 [nM]": 7.33}
{"MOLECULE": "Cc1cc(Cc2nc3cnc4ccc(C#N)cc4c3n2[C@H]2CC[C@H](O)CC2)no1 [Example 240, formate salt]", "IC50 [nM]": 51.8}
{"MOLECULE": "COCc1cn(Cc2nc3cnc4ccc(C#N)cc4c3n2[C@@H]2CC[C@H](F)C2)nn1 (single isomer, unassigned; ent-1)", "IC50 [nM]": 7.49}
{"MOLECULE": "C[C@@H]1C[C@H](n2c(Cc3ccc(C(F)(F)F)cn3)nc3cnc4ccc(C#N)cc4c32)CCO1", "IC50 [nM]": 15}
{"MOLECULE": "C[C@@H]1C[C@H](n2c(Cn3cccn3)nc3cnc4ccc(C#N)cc4c32)CCO1 [Example 121, formate salt]", "IC50 [nM]": 6.19}

Give one value of IC50 per listed molecule.
1. C[C@@H]1C[C@H](n2c(Cc3nc4ccccc4o3)nc3cnc4ccc(C#N)cc4c32)CCO1 [Example 153, formate salt]
2. C[C@@H]1C[C@H](n2c(C(F)c3csnn3)nc3cnc4ccc(Cl)cc4c32)CCO1 (stereo partly shown) [Example 220, formate salt]
3. Cc1cc(Cc2nc3cnc4ccc(C#N)cc4c3n2[C@H]2CC[C@](C)(O)CC2)no1 [Example 247, formate salt]
4. C[C@@H]1C[C@H](n2c(Cc3cc(CO)on3)nc3cnc4ccc(Cl)cc4c32)CCO1
5. C[C@@H]1C[C@H](n2c(Cc3cnco3)nc3cnc4ccc(Cl)cc4c32)CCO1 [Example 127, formate salt]
6. Cc1cn(Cc2nc3cnc4ccc(C#N)cc4c3n2C2CCC(F)C2)nn1 (single isomer, unassigned; ent-1)
7. Cc1cc(Cc2nc3cnc4ccc(C#N)cc4c3n2[C@@H]2CC[C@H](F)C2)on1 (single isomer, unassigned; ent-1)

[6.04, 4.81, 85.1, 2.89, 7.02, 20.4, 4.15]

Reported IC50 ( `C[C@@H]1C[C@H](n2c(Cc3cc(C(F)(F)F)on3)nc3cnc4ccc(C#N)cc4c32)CCO1` ) = 7.53
